Recorded values, source patent US20260028365A1.

pIC50 reference
Biological target: Tyk2 (Homo sapiens (Human), UniProt P29597)
Sequence (P29597 whole entry): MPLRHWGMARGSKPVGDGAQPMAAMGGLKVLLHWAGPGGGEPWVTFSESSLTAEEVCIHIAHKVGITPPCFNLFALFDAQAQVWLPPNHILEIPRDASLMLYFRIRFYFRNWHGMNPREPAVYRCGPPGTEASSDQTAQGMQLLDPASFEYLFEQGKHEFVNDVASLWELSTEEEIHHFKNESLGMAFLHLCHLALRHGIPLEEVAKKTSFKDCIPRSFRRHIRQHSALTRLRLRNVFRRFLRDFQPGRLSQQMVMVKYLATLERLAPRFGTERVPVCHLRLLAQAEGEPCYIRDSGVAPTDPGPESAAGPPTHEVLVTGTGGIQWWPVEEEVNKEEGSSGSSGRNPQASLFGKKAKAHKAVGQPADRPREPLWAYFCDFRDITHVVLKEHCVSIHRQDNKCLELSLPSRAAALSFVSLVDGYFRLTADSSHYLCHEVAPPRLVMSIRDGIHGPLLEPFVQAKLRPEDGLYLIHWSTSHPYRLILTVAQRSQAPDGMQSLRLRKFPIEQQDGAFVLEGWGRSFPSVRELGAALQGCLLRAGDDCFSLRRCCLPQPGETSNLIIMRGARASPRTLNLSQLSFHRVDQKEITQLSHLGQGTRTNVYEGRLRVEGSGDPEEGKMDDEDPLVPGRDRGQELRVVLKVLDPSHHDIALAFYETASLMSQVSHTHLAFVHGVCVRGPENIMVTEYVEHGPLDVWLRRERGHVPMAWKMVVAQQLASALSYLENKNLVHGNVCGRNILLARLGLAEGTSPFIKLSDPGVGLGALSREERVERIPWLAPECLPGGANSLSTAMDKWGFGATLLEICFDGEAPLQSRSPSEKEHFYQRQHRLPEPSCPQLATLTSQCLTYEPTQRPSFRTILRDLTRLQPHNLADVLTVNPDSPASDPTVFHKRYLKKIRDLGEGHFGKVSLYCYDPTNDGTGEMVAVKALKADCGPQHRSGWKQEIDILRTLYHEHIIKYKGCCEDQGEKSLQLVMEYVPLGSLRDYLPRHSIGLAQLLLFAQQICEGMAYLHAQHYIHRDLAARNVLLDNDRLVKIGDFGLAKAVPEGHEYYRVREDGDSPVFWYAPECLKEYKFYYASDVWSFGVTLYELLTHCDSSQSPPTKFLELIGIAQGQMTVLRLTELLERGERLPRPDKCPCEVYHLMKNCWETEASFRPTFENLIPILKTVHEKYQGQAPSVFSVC
Assay: pSTAT4 Cell Assay (MSD, NK92 cells)
Format: cell-based
Details: MSD
Method: The inhibitory potency of compounds of the disclosure against the Tyk2 kinase activity on STAT4 was evaluated using an MSD-platform plate-based assay format. NK92 cells natively expressing STAT4 and Tyk2 were serum-starved to reduce background phosphorylation levels, then cells were treated compounds for 1 hr with a 10-point four-fold dilution series starting at 10 μM. Cells were then stimulated with 30 ng/mL IL2 for 15 minutes. […]
pIC50: −log10 of the molar value.

Examples from the recorded data:
> print(dat)
                                   compound  recorded.result
1  COCCn1ncc(-c2cnc(NC(C)=O)cc2Nc2cc(C)nc(C(C)(F)F)n2)n1           ≥ 8.00
2  CC(=O)Nc1cc(Nc2cc(OC3CC3)nc(C(C)(F)F)n2)c(OC(F)(F)F)cn1     6.00 to 7.00

Enquiry: Give pIC50 for this entry on Tyk2 (Homo sapiens (Human), UniProt P29597): CC(=O)Nc1cc(Nc2cc(C)nc(C(C)(F)F)n2)c(OCc2cc(C#N)ccn2)cn1
Return: 7.00 to 8.00

Enquiry: Provide pIC50, tested on Tyk2 (Homo sapiens (Human), UniProt P29597), for CC(=O)Nc1cc(Nc2cc(C)nc(C(C)(F)F)n2)c(OCC2COC(C)(C)CO2)cn1 (stereo not drawn) .
Return: 7.00 to 8.00

Enquiry: Please respond with reported pIC50 (system Tyk2 (Homo sapiens (Human), UniProt P29597)) for CC(=O)Nc1cc(Nc2cc(C)nc(C(C)(F)F)n2)c(-c2csc(N(C)C)n2)cn1 .
Return: ≥ 8.00

Enquiry: Look up and report measured pIC50 (Tyk2 (Homo sapiens (Human), UniProt P29597)) for the following compound: COc1nc(C)cc(Nc2cc(NC(C)=O)ncc2-c2ccn(C)n2)n1
Return: 7.00 to 8.00

Enquiry: Please report pIC50 with Tyk2 (Homo sapiens (Human), UniProt P29597) for item CCOc1cnc(NC(=O)COC)cc1Nc1cc(C)nc(C(C)(F)F)n1 .
Return: 7.00 to 8.00

Enquiry: Find pIC50 for CC(=O)Nc1cc(Nc2ccnc(C(C)(F)F)n2)c(-c2nnc(N3CCOCC3)s2)cn1 on Tyk2 (Homo sapiens (Human), UniProt P29597) and write it down.
Return: ≥ 8.00

Enquiry: For Tyk2 (Homo sapiens (Human), UniProt P29597), give the measured pIC50 of the entry CC(=O)Nc1cc(Nc2cc(C)nc(C(C)(F)F)n2)c(-c2ccc(N(C)C)cn2)cn1
Return: ≥ 8.00

Enquiry: Quote pIC50 with test system Tyk2 (Homo sapiens (Human), UniProt P29597) for CC(=O)Nc1cc(Nc2cc(C)nc(C34CC(CO3)C4)n2)c(-c2ccc(COC(F)F)cn2)cn1
Return: 7.00 to 8.00

Enquiry: Param request: pIC50 | system Tyk2 (Homo sapiens (Human), UniProt P29597) | item CO[C@H]1C[C@@H](Oc2cnc(NC(C)=O)cc2Nc2cc(OC3CC3)nc(C(C)(F)F)n2)C1
Return: ≥ 8.00

Enquiry: Give Tyk2 (Homo sapiens (Human), UniProt P29597) pIC50 for the following compound: CCOc1cnc(NC(C)=O)cc1Nc1cc(-c2cnn(CCN3CCOCC3)c2)nc(C(C)(F)F)n1
Return: 7.00 to 8.00

Enquiry: # assay system Tyk2 (Homo sapiens (Human), UniProt P29597): give pIC50 of CC(=O)Nc1cc(Nc2cc(C)nc(C(C)(C)F)n2)c(-c2ccn3ccnc3n2)cn1
Return: ≥ 8.00

Enquiry: Would you please give the reported pIC50 of COc1cccnc1COc1cnc(NC(C)=O)cc1Nc1cc(C)nc(C(C)(F)F)n1 with Tyk2 (Homo sapiens (Human), UniProt P29597)?
Return: 6.00 to 7.00
